Listed here: items and their measured growth inhibition.
- ASSAY_DETAILS: NCI Yeast Anticancer Drug Screen. Data for the cln2 rad14 strain (AID 165);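 also: 0% = growth equal to vehicle treated cultures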
- DETAILS: S. cerevisiae cln2 rad14 strain, at 5.0 µM (retest, dose inferred, filed as 0.5), active compounds read high
The panel holds about 79,000 compounds, 15% with a hit somewhere; the sample as a whole holds those more often.
Report only the number, with the unit % understood.

COMPOUND | UNITS_LABEL | growth inhibition
O=CC(=C(I)I)c1ccccc1 | % | 2

stdin: Given the entry Cc1cc(NC(=S)SCc2ccc(Cl)cc2)ccc1Cl , report its measured growth inhibition.
stdout: 29

stdin: Given the entry O=[N+]([O-])C(=C(NCc1ccccc1)NCc1ccccc1)C(Cl)=C(Cl)Cl , report its measured growth inhibition.
stdout: 40

stdin: Given the entry OC1C#CCSCC#C/C=C\1 (configuration not stated) , report its measured growth inhibition.
stdout: 60

stdin: Given the entry CCCCCCC(CCl)c1sc(-c2csc(CCNC(=O)OC(C)(C)C)n2)nc1C(=O)OC (configuration not stated) , report its measured growth inhibition.
stdout: 47

stdin: Given the entry CC(O)CN1C(=O)c2cccc3cc([N+](=O)[O-])cc(c23)C1=O (configuration not stated) , report its measured growth inhibition.
stdout: 5

stdin: Given the entry COc1ccc2cc(CN3CCC(C4CCN(Cc5ccc6cc(OC)ccc6c5)CC4)CC3)ccc2c1 , report its measured growth inhibition.
stdout: 19

stdin: Given the entry C#CC1=CC(=O)C(OC)=CC1=O , report its measured growth inhibition.
stdout: 39

stdin: Given the entry O=[N+]([O-])c1ccc2nnnn2c1 , report its measured growth inhibition.
stdout: 2
